Organism: Rattus norvegicus
assay-info: Open TG-GATES - Regimen: Daily Repeat
Format: toxicity, organism-based, Sprague-Dawley
Parameters: regimen Daily Repeat, gender Male, age 6 weeks
condition-notes: in vivo, po, 300 mg/kg, […], tissue Plasma, route gavage, dose level Middle, time 28 day
Reported TC values for a set of compounds
The answer is to be given in mg/dL; state only the numeric part.

A selection of reference data follows.
[
  {
    "compound": "COC1=CC(=O)C[C@@H](C)[C@]12Oc1c(Cl)c(OC)cc(OC)c1C2=O",
    "quantity": "TC",
    "value-reported": 70.4
  },
  {
    "compound": "NC(N)=Nc1nc(CSCCC(N)=NS(N)(=O)=O)cs1",
    "quantity": "TC",
    "value-reported": 68.6
  },
  {
    "compound": "CCOc1ccc(NC(=O)CC(C)O)cc1 (stereo not given)",
    "quantity": "TC",
    "value-reported": 77.2
  },
  {
    "compound": "CCOC(=O)CCC(=O)O[C@H]1[C@H](O[C@@H]2[C@@H](C)[C@H](O[C@H]3C[C@@](C)(OC)[C@@H](O)[C@H](C)O3)[C@@H](C)C(=O)O[C@H](CC)[C@@](C)(O)[C@H](O)[C@@H](C)C(=O)[C@H](C)C[C@@]2(C)O)O[C@H](C)C[C@@H]1N(C)C [ERYTHROMYCIN ETHYLSUCCINATE]",
    "quantity": "TC",
    "value-reported": 78.2
  }
]

Return reported TC; argument: COc1ccc2[nH]c([S+]([O-])Cc3ncc(C)c(OC)c3C)nc2c1 (stereo not given)
70

---

Reported LIVER values for a set of compounds
Species: Rattus norvegicus
assay-info: Open TG-GATES - Regimen: Single
Assay type: toxicity, organism-based, Sprague-Dawley
Set-up: regimen Single, gender Male, age 6 weeks
condition-notes: in vivo, po, 0 mg/kg, 6 h, tissue Liver, route gavage, dose level Control
The answer is to be given in g; state only the numeric part.

A selection of reference data follows.
[
  {
    "compound": "CCCNC(=O)NS(=O)(=O)c1ccc(Cl)cc1 [CHLORPROPAMIDE]",
    "units-text": "g",
    "LIVER": 8.2
  },
  {
    "compound": "O=C(CCCN1CCC(O)(c2ccc(Cl)cc2)CC1)c1ccc(F)cc1",
    "units-text": "g",
    "LIVER": 9.3
  },
  {
    "compound": "CN(C)CCCN1c2ccccc2CCc2ccc(Cl)cc21",
    "units-text": "g",
    "LIVER": 9.4
  },
  {
    "compound": "CC/C(=C(\\c1ccccc1)c1ccc(OCCN(C)C)cc1)c1ccccc1",
    "units-text": "g",
    "LIVER": 7.8
  },
  {
    "compound": "CN(C)CCCN1c2ccccc2CCc2ccccc21",
    "units-text": "g",
    "LIVER": 9.1
  },
  {
    "compound": "NNC(=O)c1ccncc1",
    "units-text": "g",
    "LIVER": 9.2
  }
]

Return reported LIVER; argument: CN(C)CCN(Cc1cccs1)c1ccccn1
8.3

Would you kindly repeat that for C[C@@H]1C[C@H]2[C@@H]3CCC4=CC(=O)C=C[C@]4(C)[C@@]3(F)[C@@H](O)C[C@]2(C)[C@@]1(O)C(=O)CO ?
9.7

Would you kindly repeat that for COc1ccc2[nH]c([S+]([O-])Cc3ncc(C)c(OC)c3C)nc2c1 (configuration not stated) ?
9.9

Would you kindly repeat that for CC1=C(/C=C/C(C)=C/C=C/C(C)=C/CO)C(C)(C)CCC1 ?
9.2

Would you kindly repeat that for Cc1ccc(C)c(OCCCC(C)(C)C(=O)O)c1 ?
9.1

Would you kindly repeat that for CN1C(=O)CN=C(c2ccccc2)c2cc(Cl)ccc21 ?
9.6

Would you kindly repeat that for CCOc1ccc(NC(=O)CC(C)O)cc1 (configuration not stated) ?
8.9

Would you kindly repeat that for CCOC(=O)CCC(=O)O[C@H]1[C@H](O[C@@H]2[C@@H](C)[C@H](O[C@H]3C[C@@](C)(OC)[C@@H](O)[C@H](C)O3)[C@@H](C)C(=O)O[C@H](CC)[C@@](C)(O)[C@H](O)[C@@H](C)C(=O)[C@H](C)C[C@@]2(C)O)O[C@H](C)C[C@@H]1N(C)C [ERYTHROMYCIN ETHYLSUCCINATE] ?
9.3
